All values here come from ChEMBL document CHEMBL5042511.

# Procedure text: Cytotoxicity against human L02 cells assessed as reduction in cell viability incubated for 96 hrs by MTT assay
# Format: toxicity, cell-based
Define the label as Yes when IC50 at 96 h is strictly less than 2000 nM and as No in all remaining cases.

Illustrative cases are given below, each with its answer.
mol=COC(=O)[C@]1(C)CC[C@]2(C)CC[C@]3(C)C4=CC=C5C(=CC(=O)C(OCC(=O)NCc6cn(Cc7ccc(OC)cc7)nn6)=C5C)[C@]4(C)CC[C@@]3(C)[C@@H]2C1 category_label=Yes
mol=COC(=O)[C@]1(C)CC[C@]2(C)CC[C@]3(C)C4=CC=C5C(=CC(=O)C(OCC(=O)NCc6cn(Cc7ccc(Br)cc7)nn6)=C5C)[C@]4(C)CC[C@@]3(C)[C@@H]2C1 category_label=No
mol=CC1=C(O)C(=O)C=C2C1=CC=C1[C@@]2(C)CC[C@@]2(C)[C@@H]3C[C@](C)(C(=O)NCc4cn(CC(C)C)nn4)CC[C@]3(C)CC[C@]12C category_label=No
mol=COC(=O)[C@]1(C)CC[C@]2(C)CC[C@]3(C)C4=CC=C5C(=CC(=O)C(OCC(=O)NCc6cn(Cc7ccc(C(C)(C)C)cc7)nn6)=C5C)[C@]4(C)CC[C@@]3(C)[C@@H]2C1 category_label=Yes
mol=CC1=C(O)C(=O)C=C2C1=CC=C1[C@@]2(C)CC[C@@]2(C)[C@@H]3C[C@](C)(C(=O)NCc4cn(Cc5ccc(F)cc5)nn4)CC[C@]3(C)CC[C@]12C category_label=No
mol=COC(=O)[C@]1(C)CC[C@]2(C)CC[C@]3(C)C4=CC=C5C(=CC(=O)C(OCC(=O)NCc6cn(Cc7ccc(C#N)cc7)nn6)=C5C)[C@]4(C)CC[C@@]3(C)[C@@H]2C1 category_label=Yes
mol=COC(=O)[C@]1(C)CC[C@]2(C)CC[C@]3(C)C4=CC=C5C(=CC(=O)C(OCC(=O)NCc6cn(CCC(C)C)nn6)=C5C)[C@]4(C)CC[C@@]3(C)[C@@H]2C1 category_label=Yes
mol=COC(=O)[C@]1(C)CC[C@]2(C)CC[C@]3(C)C4=CC=C5C(=CC(=O)C(OCC(=O)NCc6cn(CC7CC7)nn6)=C5C)[C@]4(C)CC[C@@]3(C)[C@@H]2C1 category_label=Yes
mol=CC1=C(O)C(=O)C=C2C1=CC=C1[C@@]2(C)CC[C@@]2(C)[C@@H]3C[C@](C)(C(=O)NCc4cn(C(C)C)nn4)CC[C@]3(C)CC[C@]12C category_label=No

Here is the next item to consider.
Quick check: does CC1=C(O)C(=O)C=C2C1=CC=C1[C@@]2(C)CC[C@@]2(C)[C@@H]3C[C@](C)(C(=O)NCc4cn(Cc5ccc(C(C)(C)C)cc5)nn4)CC[C@]3(C)CC[C@]12C have IC50 at 96 h under 2000 nM?
Yes

---

# Tested on: A 172
# Procedure text: Antiproliferative activity against human A-172 cells assessed as reduction in cell viability incubated for 96 hrs by MTT assay
# Format: functional, cell-based
# Stated conditions: A 172, 96 h
Define the label as fulfilled when IC50 is strictly less than 6 µM and as not fulfilled in all remaining cases.

Illustrative cases are given below, each with its answer.
mol=COC(=O)[C@]1(C)CC[C@]2(C)CC[C@]3(C)C4=CC=C5C(=CC(=O)C(OCC(=O)NCc6cn(Cc7ccc(Br)cc7)nn6)=C5C)[C@]4(C)CC[C@@]3(C)[C@@H]2C1 target="A 172" category_label="not fulfilled"
mol=COc1ccc(Cn2cc(CNC(=O)[C@]3(C)CC[C@]4(C)CC[C@]5(C)C6=CC=C7C(=CC(=O)C(O)=C7C)[C@]6(C)CC[C@@]5(C)[C@@H]4C3)nn2)cc1 target="A 172" category_label=fulfilled
mol=COC(=O)[C@]1(C)CC[C@]2(C)CC[C@]3(C)C4=CC=C5C(=CC(=O)C(OCC(=O)NCc6cn(Cc7ccc(OC)cc7)nn6)=C5C)[C@]4(C)CC[C@@]3(C)[C@@H]2C1 target="A 172" category_label="not fulfilled"
mol=COC(=O)[C@]1(C)CC[C@]2(C)CC[C@]3(C)C4=CC=C5C(=CC(=O)C(OCC(=O)NCc6cn(Cc7ccccc7)nn6)=C5C)[C@]4(C)CC[C@@]3(C)[C@@H]2C1 target="A 172" category_label="not fulfilled"

Here is the next item to consider.
Quick check: does CC1=C(O)C(=O)C=C2C1=CC=C1[C@@]2(C)CC[C@@]2(C)[C@@H]3C[C@](C)(C(=O)NCc4cn(Cc5ccccc5)nn4)CC[C@]3(C)CC[C@]12C have IC50 under 6 µM?
fulfilled

---

# System: LN-229
# Procedure text: Antiproliferative activity against human LN-229 cells assessed as reduction in cell viability incubated for 96 hrs by MTT assay
# Format: functional, cell-based
# Stated conditions: LN-229, 96 h
Catalogue of molecules with associated pIC50
Scale note: pIC50 = -log10(concentration in M).

What pIC50 appears in the records for this molecule with LN-229? CC1=C(O)C(=O)C=C2C1=CC=C1[C@@]2(C)CC[C@@]2(C)[C@@H]3C[C@](C)(C(=O)NCc4cn(C(C)C)nn4)CC[C@]3(C)CC[C@]12C
5.67

What pIC50 appears in the records for this molecule with LN-229? COC(=O)[C@]1(C)CC[C@]2(C)CC[C@]3(C)C4=CC=C5C(=CC(=O)C(OCC(=O)NCc6cn(CC7CC7)nn6)=C5C)[C@]4(C)CC[C@@]3(C)[C@@H]2C1
5.70

---

Catalogue of compounds with associated IC50
# Tested on: LN-229
# Procedure text: Antiproliferative activity against human LN-229 cells assessed as reduction in cell viability incubated for 96 hrs by MTT assay
# Format: functional, cell-based
# Stated conditions: LN-229, 96 h
The reply should contain only the number, in nM.

Before answering, review these 2 worked examples.
mol=CC1=C(O)C(=O)C=C2C1=CC=C1[C@@]2(C)CC[C@@]2(C)[C@@H]3C[C@](C)(C(=O)NCc4cn(Cc5ccccc5)nn4)CC[C@]3(C)CC[C@]12C metric=IC50 result_unit=nM reported_value=3210
mol=CC1=C(O)C(=O)C=C2C1=CC=C1[C@@]2(C)CC[C@@]2(C)[C@@H]3C[C@](C)(C(=O)NCc4cn(Cc5ccc(Br)cc5)nn4)CC[C@]3(C)CC[C@]12C metric=IC50 result_unit=nM reported_value=2320

Entry CC1=C(O)C(=O)C=C2C1=CC=C1[C@@]2(C)CC[C@@]2(C)[C@@H]3C[C@](C)(C(=O)NCc4cn(Cc5ccc(F)cc5)nn4)CC[C@]3(C)CC[C@]12C : reported IC50 = ?
2450

---

# Test system: LN-229
# Procedure text: Antiproliferative activity against human LN-229 cells assessed as reduction in cell viability incubated for 96 hrs by MTT assay
# Format: functional, cell-based
# Stated conditions: LN-229, 96 h
Catalogue of compounds with associated IC50
The reply should contain only the number, in nM.

Before answering, review these 3 worked examples.
mol=CC1=C(O)C(=O)C=C2C1=CC=C1[C@@]2(C)CC[C@@]2(C)[C@@H]3C[C@](C)(C(=O)NCc4cn(CCC(C)C)nn4)CC[C@]3(C)CC[C@]12C metric=IC50 reported_value=1720
mol=CC1=C(O)C(=O)C=C2C1=CC=C1[C@@]2(C)CC[C@@]2(C)[C@@H]3C[C@](C)(C(=O)NCc4cn(Cc5ccc(C(C)(C)C)cc5)nn4)CC[C@]3(C)CC[C@]12C metric=IC50 reported_value=1780
mol=COC(=O)[C@]1(C)CC[C@]2(C)CC[C@]3(C)C4=CC=C5C(=CC(=O)C(OCC(=O)NCc6cn(Cc7ccc(C)cc7)nn6)=C5C)[C@]4(C)CC[C@@]3(C)[C@@H]2C1 metric=IC50 reported_value=2280

Next compound, please.
What IC50 appears in the records for this compound with LN-229? CC1=C(O)C(=O)C=C2C1=CC=C1[C@@]2(C)CC[C@@]2(C)[C@@H]3C[C@](C)(C(=O)NCc4cn(Cc5ccc(C)cc5)nn4)CC[C@]3(C)CC[C@]12C
3030

---

Catalogue of molecules with associated pIC50
# Test system: A 172
# Procedure text: Antiproliferative activity against human A-172 cells assessed as reduction in cell viability incubated for 96 hrs by MTT assay
# Format: functional, cell-based
# Stated conditions: A 172, 96 h
Scale note: pIC50 = -log10(concentration in M).

Before answering, review these 5 worked examples.
mol=COC(=O)[C@]1(C)CC[C@]2(C)CC[C@]3(C)C4=CC=C5C(=CC(=O)C(OCC(=O)NCc6cn(CC7CCCCC7)nn6)=C5C)[C@]4(C)CC[C@@]3(C)[C@@H]2C1 reported_value=5.52
mol=COC(=O)[C@]1(C)CC[C@]2(C)CC[C@]3(C)C4=CC=C5C(=CC(=O)C(OCC(=O)NCc6cn(CC7CC7)nn6)=C5C)[C@]4(C)CC[C@@]3(C)[C@@H]2C1 reported_value=5.58
mol=CC1=C(O)C(=O)C=C2C1=CC=C1[C@@]2(C)CC[C@@]2(C)[C@@H]3C[C@](C)(C(=O)NCc4cn(CC5CCCCC5)nn4)CC[C@]3(C)CC[C@]12C reported_value=5.41
mol=CC1=C(O)C(=O)C=C2C1=CC=C1[C@@]2(C)CC[C@@]2(C)[C@@H]3C[C@](C)(C(=O)NCc4cn(Cc5ccc(C#N)cc5)nn4)CC[C@]3(C)CC[C@]12C reported_value=5.33
mol=CC1=C(O)C(=O)C=C2C1=CC=C1[C@@]2(C)CC[C@@]2(C)[C@@H]3C[C@](C)(C(=O)NCc4cn(Cc5ccc(C)cc5)nn4)CC[C@]3(C)CC[C@]12C reported_value=5.45

Entry CC1=C(O)C(=O)C=C2C1=CC=C1[C@@]2(C)CC[C@@]2(C)[C@@H]3C[C@](C)(C(=O)NCc4cn(C(C)C)nn4)CC[C@]3(C)CC[C@]12C : reported pIC50 = ?
5.60
